Biological target: OX1 (Homo sapiens, UniProt O43613)
Construct: expressed in transfected cells; host or cells: CHO (CHO-OX1)
Sequence (O43613 1-425): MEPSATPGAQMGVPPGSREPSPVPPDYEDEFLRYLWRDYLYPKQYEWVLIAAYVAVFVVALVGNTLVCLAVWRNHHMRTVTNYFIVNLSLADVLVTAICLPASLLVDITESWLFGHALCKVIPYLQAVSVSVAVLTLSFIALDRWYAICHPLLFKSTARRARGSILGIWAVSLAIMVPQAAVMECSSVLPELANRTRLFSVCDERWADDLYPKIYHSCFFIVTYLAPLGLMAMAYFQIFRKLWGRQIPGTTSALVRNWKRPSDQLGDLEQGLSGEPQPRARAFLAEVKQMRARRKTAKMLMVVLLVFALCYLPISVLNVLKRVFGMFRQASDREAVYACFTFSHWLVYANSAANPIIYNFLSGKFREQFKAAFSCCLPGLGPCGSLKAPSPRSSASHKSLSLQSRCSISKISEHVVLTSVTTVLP
Test: Orexin receptor cell-based functional assay, [Ca2+]i by FLIPR, CHO-OX1 cells
Conditions: FLIPR calcium, antagonism of EC90 of [OX], read-out: OXI, IC50
PROPERTY MEASURED: IC50

Would you please look over these solved cases?
- SMILES ENTRY: "Cc1cccc(-c2sc(C)nc2C(=O)N2CC(F)(F)C[C@@H](C)[C@H]2CNc2cnc(C(F)(F)F)cn2)c1"
  IC50: "10 nM"
- SMILES ENTRY: "C[C@@H]1CC(F)(F)CN(C(=O)c2nn(C)cc2-c2ncc(F)cn2)[C@@H]1COc1ncc(C(F)(F)F)cn1"
  IC50: "4820 nM"
- SMILES ENTRY: "C[C@@H]1CC(F)(F)CN(C(=O)c2nn(C)cc2-c2ncccn2)[C@@H]1CNc1ncc(C(F)(F)F)cn1"
  IC50: "12 nM"
- SMILES ENTRY: "C[C@@H]1CC(F)(F)CN(C(=O)c2cn(C)nc2-c2ccccn2)[C@@H]1CNc1cnc(C(F)(F)F)cn1"
  IC50: "62 nM"
- SMILES ENTRY: "Cc1ccc(-c2ncccn2)c(C(=O)N2CC(F)(F)C[C@@H](C)[C@H]2CNc2ncc(Cl)cn2)n1"
  IC50: "18 nM"
- SMILES ENTRY: "C[C@@H]1CC(F)(F)CN(C(=O)c2cc(F)ccc2-n2nccn2)[C@@H]1CNc1ncc(C(F)(F)F)cn1"
  IC50: "192 nM"

Provide measured IC50 value, entry: Cc1nc(C(=O)N2CC(F)(F)C[C@@H](C)[C@H]2CNc2ncc(Cl)cn2)c(-c2ccc(F)cc2)s1 9 nM

----------
biological target: OX1 (Homo sapiens, UniProt O43613); assay: Orexin receptor cell-based functional assay, [Ca2+]i by FLIPR, CHO-OX1 cells; details: FLIPR calcium, antagonism of EC90 of [OX], read-out: OXI, IC50
PROPERTY MEASURED: pIC50
Remember the convention: pIC50 equals -log10 of concentration in molar.

Answered examples (3):
- SMILES ENTRY: "C[C@@H]1CC(F)(F)CN(C(=O)c2nn(C)cc2-c2ccc(Cl)cc2)[C@@H]1CNc1ncc(C(F)(F)F)cn1"
  pIC50: 8.40
- SMILES ENTRY: "COc1cccc(-c2cn(C)nc2C(=O)N2CC(F)(F)C[C@@H](C)[C@H]2CNc2ncc(C(F)(F)F)cn2)c1"
  pIC50: 8.40
- SMILES ENTRY: "Cc1nc(C(=O)N2CC(F)(F)C[C@@H](C)[C@H]2CNc2ncc(Cl)cn2)c(-c2ncccn2)s1"
  pIC50: 7.70

Supply recorded pIC50 for Cc1ccc(-c2nnn(C)n2)c(C(=O)N2CC(F)(F)C[C@@H](C)[C@H]2CNc2ncc(Cl)cn2)c1 here. 8.22

Indicate its recorded pIC50; the molecule in question is Cc1ccc(-c2ccc(C)nc2C(=O)N2CC(F)(F)C[C@@H](C)[C@H]2CNc2ncc(C(F)(F)F)cn2)nc1 7.85

Fill in pIC50 for record CCc1cnc(NC[C@@H]2[C@H](C)CC(F)(F)CN2C(=O)c2nc(C)sc2-c2ccc(F)cc2)nc1 7.54

----------
target: OX1 (Homo sapiens, UniProt O43613); assay: Orexin receptor cell-based functional assay, [Ca2+]i by FLIPR, CHO-OX1 cells; conditions: FLIPR calcium, antagonism of EC90 of [OX], read-out: OXI, IC50
Catalogue of compounds with associated pIC50
Lab note — pIC50 values are minus log10 of concentrations in M.

Check out these entries, answers already filled in.
- SMILES ENTRY: "C[C@@H]1CC(F)(F)CN(C(=O)c2cc(Cl)ccc2-n2nccn2)[C@@H]1CNc1ncc(Cl)cn1"
  TARGET OR TEST SYSTEM: "OX1 (Homo sapiens, UniProt O43613)"
  ENDPOINT VALUE: 8.10
- SMILES ENTRY: "CC#Cc1ccc(C)nc1C(=O)N1CC(F)(F)C[C@@H](C)[C@H]1CNc1ncc(C(F)(F)F)cn1"
  TARGET OR TEST SYSTEM: "OX1 (Homo sapiens, UniProt O43613)"
  ENDPOINT VALUE: 6.60
- SMILES ENTRY: "Cc1ccc(-c2sc(C)nc2C(=O)N2CC(F)(F)C[C@@H](C)[C@H]2CNc2cnc(C(F)(F)F)cn2)nc1"
  TARGET OR TEST SYSTEM: "OX1 (Homo sapiens, UniProt O43613)"
  ENDPOINT VALUE: 8.22

Now, please, on to the next compound.
Give pIC50 for C[C@@H]1CC(F)(F)CN(C(=O)c2cc(Cl)ccc2-c2nnn(C)n2)[C@@H]1CNc1cnc(C(F)(F)F)cn1 8.05

----------
Molecular target: OX1 (Homo sapiens)
Sequence (O43613 1-425): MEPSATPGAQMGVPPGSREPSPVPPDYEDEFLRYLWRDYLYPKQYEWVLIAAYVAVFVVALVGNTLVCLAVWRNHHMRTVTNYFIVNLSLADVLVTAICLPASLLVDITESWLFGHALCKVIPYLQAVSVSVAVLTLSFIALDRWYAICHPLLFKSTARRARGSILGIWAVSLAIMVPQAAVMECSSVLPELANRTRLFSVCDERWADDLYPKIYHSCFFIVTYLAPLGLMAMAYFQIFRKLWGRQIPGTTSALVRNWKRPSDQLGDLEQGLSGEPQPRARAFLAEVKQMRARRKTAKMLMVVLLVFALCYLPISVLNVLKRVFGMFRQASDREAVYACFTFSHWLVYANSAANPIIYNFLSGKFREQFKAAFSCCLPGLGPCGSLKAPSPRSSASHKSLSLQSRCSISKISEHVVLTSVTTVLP
Experiment: Orexin receptor cell-based functional assay, [Ca2+]i by FLIPR, CHO-OX1 cells
Conditions: FLIPR calcium, antagonism of EC90 of [OX], read-out: OXI, IC50
Item-by-item account of IC50
State just the number; it will be interpreted in nM.

- SMILES ENTRY: "Cc1ccc(-c2sc(C)nc2C(=O)N2CC(F)(F)C[C@@H](C)[C@H]2CNc2cnc(C(F)(F)F)cn2)cc1"
  TARGET OR TEST SYSTEM: "OX1 (Homo sapiens)"
  ENDPOINT VALUE: 6
- SMILES ENTRY: "Cc1ccc(-c2cn(C)nc2C(=O)N2CC(F)(F)C[C@@H](C)[C@H]2CNc2ccc(C(F)(F)F)cn2)cc1"
  TARGET OR TEST SYSTEM: "OX1 (Homo sapiens)"
  ENDPOINT VALUE: 4
- SMILES ENTRY: "Cc1ccc(-c2ccccc2)c(C(=O)N2CC(F)(F)C[C@@H](C)[C@H]2CNc2ncc(Cl)cn2)n1"
  TARGET OR TEST SYSTEM: "OX1 (Homo sapiens)"
  ENDPOINT VALUE: 9
- SMILES ENTRY: "COc1ccc(-c2sc(C)nc2C(=O)N2CC(F)(F)C[C@@H](C)[C@H]2CNc2ncc(C(F)(F)F)cn2)nc1"
  TARGET OR TEST SYSTEM: "OX1 (Homo sapiens)"
  ENDPOINT VALUE: 2
- SMILES ENTRY: "Cc1ccnc(-c2sc(C)nc2C(=O)N2CC(F)(F)C[C@@H](C)[C@H]2CNc2ncc(C(F)(F)F)cn2)c1"
  TARGET OR TEST SYSTEM: "OX1 (Homo sapiens)"
  ENDPOINT VALUE: 6

# return recorded IC50 for entry C[C@@H]1CC(F)(F)CN(C(=O)c2nn(C)cc2-c2cncnc2)[C@@H]1CNc1ncc(C(F)(F)F)cn1 74

Item C[C@@H]1CC(F)(F)CN(C(=O)c2nn(C)cc2-c2ncc(F)cn2)[C@@H]1CNc1ncc(C(F)(F)F)cn1 : provide IC50 4

Supply recorded IC50 for Cc1ccc(-n2ncc(C)n2)c(C(=O)N2CC(F)(F)C[C@@H](C)[C@H]2CNc2ncc(C(F)(F)F)cn2)c1 here. 7

Please report IC50 for the following compound: C[C@@H]1CC(F)(F)CN(C(=O)c2nn(C)cc2-c2ccccc2)[C@@H]1CNc1cnc(C(F)(F)F)cn1 2

For the compound Cc1nc(C(=O)N2CC(F)(F)C[C@@H](C)[C@H]2CNc2ncc(C(F)(F)F)cn2)c(-c2ccc(F)cc2)s1 , give its measured IC50 value. 8

Report IC50, nothing else, for this compound: Cc1nc(C(=O)N2CC(F)(F)C[C@@H](C)[C@H]2CNc2ncc(C(F)(F)F)cn2)c(-c2ccccc2F)s1 1
